- Test system: Enterococcus
- assay procedure: Antimicrobial activity against vancomycin-sensitive Enterococcus by agar dilution method
- Format: functional
A collection of compounds and their measured MIC
readout label: MIC

>>> result("Cc1ccccc1C(=O)N1CCN(c2ccc(N3C[C@H](Cn4ccnn4)OC3=O)cc2F)CC1")
"1 µg/mL"
>>> result("O=C(c1ccco1)N1CCN(c2ccc(N3C[C@H](Cn4ccnn4)OC3=O)cc2F)CC1")
"0.5 µg/mL"
>>> result("Cc1ccc(S(=O)(=O)N2CCN(c3ccc(N4C[C@H](Cn5ccnn5)OC4=O)cc3F)CC2)cc1")
"> 8 µg/mL"
>>> result("O=C1O[C@@H](Cn2ccnn2)CN1c1ccc(N2CCN(S(=O)(=O)c3ccccc3)CC2)c(F)c1")
"2 µg/mL"
>>> result("O=C(c1ccc(Cl)cc1)N1CCN(c2ccc(N3C[C@H](Cn4ccnn4)OC3=O)cc2F)CC1")
"0.5 µg/mL"
>>> result("CC(=O)NC[C@H]1CN(c2ccc(N3CCOCC3)c(F)c2)C(=O)O1")
"0.5 µg/mL"
>>> result("O=C1O[C@@H](Cn2ccnn2)CN1c1ccc(N2CCN(S(=O)(=O)c3cccs3)CC2)c(F)c1")
"0.5 µg/mL"
>>> result("O=C(c1cccc(F)c1)N1CCN(c2ccc(N3C[C@H](Cn4ccnn4)OC3=O)cc2F)CC1")
"0.5 µg/mL"
>>> result("O=C(/C=C/c1ccccc1Cl)N1CCN(c2ccc(N3C[C@H](Cn4ccnn4)OC3=O)cc2F)CC1")
"0.5 µg/mL"

====

- System: Enterococcus
- assay procedure: Antimicrobial activity against vancomycin-sensitive Enterococcus by agar dilution method
- Format: functional
readout label: MIC (µg/mL)

>>> quantitative_readout("O=C(c1ccccc1)N1CCN(c2ccc(N3C[C@H](Cn4ccnn4)OC3=O)cc2F)CC1")
0.25
>>> quantitative_readout("O=C(c1cccnc1)N1CCN(c2ccc(N3C[C@H](Cn4ccnn4)OC3=O)cc2F)CC1")
1
>>> quantitative_readout("O=C(C(=O)N1CCN(c2ccc(N3C[C@H](Cn4ccnn4)OC3=O)cc2F)CC1)c1cccs1")
0.5
>>> quantitative_readout("O=C(/C=C/c1ccccc1)N1CCN(c2ccc(N3C[C@H](Cn4ccnn4)OC3=O)cc2F)CC1")
0.5
>>> quantitative_readout("CN[C@H](CC(C)C)C(=O)N[C@H]1C(=O)N[C@@H](CC(N)=O)C(=O)N[C@H]2C(=O)N[C@H]3C(=O)N[C@H](C(=O)N[C@H](C(=O)O)c4cc(O)cc(O)c4-c4cc3ccc4O)[C@H](O)c3ccc(c(Cl)c3)Oc3cc2cc(c3O[C@@H]2O[C@H](CO)[C@@H](O)[C@H](O)[C@H]2O[C@H]2C[C@](C)(N)[C@H](O)[C@H](C)O2)Oc2ccc(cc2Cl)[C@H]1O")
0.25
>>> quantitative_readout("O=C1O[C@@H](Cn2ccnn2)CN1c1ccc(N2CCOCC2)c(F)c1")
0.5
>>> quantitative_readout("Cc1ccc(C(=O)N2CCN(c3ccc(N4C[C@H](Cn5ccnn5)OC4=O)cc3F)CC2)cc1")
1
>>> quantitative_readout("Cc1cccc(C(=O)N2CCN(c3ccc(N4C[C@H](Cn5ccnn5)OC4=O)cc3F)CC2)c1")
0.5
>>> quantitative_readout("O=C(c1cccc([N+](=O)[O-])c1)N1CCN(c2ccc(N3C[C@H](Cn4ccnn4)OC3=O)cc2F)CC1")
0.5
>>> quantitative_readout("O=C(c1cccnc1Cl)N1CCN(c2ccc(N3C[C@H](Cn4ccnn4)OC3=O)cc2F)CC1")
1
>>> quantitative_readout("O=C(c1ccccc1[N+](=O)[O-])N1CCN(c2ccc(N3C[C@H](Cn4ccnn4)OC3=O)cc2F)CC1")
2
>>> quantitative_readout("O=C(c1ccccc1F)N1CCN(c2ccc(N3C[C@H](Cn4ccnn4)OC3=O)cc2F)CC1")
0.5
>>> quantitative_readout("COc1ccc(C(=O)N2CCN(c3ccc(N4C[C@H](Cn5ccnn5)OC4=O)cc3F)CC2)cc1")
1
>>> quantitative_readout("O=C(c1cccs1)N1CCN(c2ccc(N3C[C@H](Cn4ccnn4)OC3=O)cc2F)CC1")
0.5
>>> quantitative_readout("O=C(c1ccc([N+](=O)[O-])cc1)N1CCN(c2ccc(N3C[C@H](Cn4ccnn4)OC3=O)cc2F)CC1")
2
>>> quantitative_readout("COc1ccccc1C(=O)N1CCN(c2ccc(N3C[C@H](Cn4ccnn4)OC3=O)cc2F)CC1")
1
>>> quantitative_readout("O=C(c1ccccc1Cl)N1CCN(c2ccc(N3C[C@H](Cn4ccnn4)OC3=O)cc2F)CC1")
0.5
>>> quantitative_readout("O=C(c1ccc(F)cc1)N1CCN(c2ccc(N3C[C@H](Cn4ccnn4)OC3=O)cc2F)CC1")
1
>>> quantitative_readout("O=C(c1ccncc1)N1CCN(c2ccc(N3C[C@H](Cn4ccnn4)OC3=O)cc2F)CC1")
1
>>> quantitative_readout("COc1cccc(C(=O)N2CCN(c3ccc(N4C[C@H](Cn5ccnn5)OC4=O)cc3F)CC2)c1")
0.5
>>> quantitative_readout("O=C(Cc1ccccc1)N1CCN(c2ccc(N3C[C@H](Cn4ccnn4)OC3=O)cc2F)CC1")
0.5

====

A collection of compounds and their measured MIC
- Test system: Staphylococcus aureus
- assay procedure: Antimicrobial activity against methicillin-resistant Staphylococcus aureus by agar dilution method
- Type: functional
readout label: MIC (µg/mL)

>>> quantitative_readout("O=C(Cc1ccccc1)N1CCN(c2ccc(N3C[C@H](Cn4ccnn4)OC3=O)cc2F)CC1")
0.5
>>> quantitative_readout("O=C(c1cccs1)N1CCN(c2ccc(N3C[C@H](Cn4ccnn4)OC3=O)cc2F)CC1")
0.5
>>> quantitative_readout("O=C(c1cccnc1Cl)N1CCN(c2ccc(N3C[C@H](Cn4ccnn4)OC3=O)cc2F)CC1")
0.5
>>> quantitative_readout("COc1ccc(C(=O)N2CCN(c3ccc(N4C[C@H](Cn5ccnn5)OC4=O)cc3F)CC2)cc1")
0.5
>>> quantitative_readout("O=C(c1cccc(F)c1)N1CCN(c2ccc(N3C[C@H](Cn4ccnn4)OC3=O)cc2F)CC1")
0.25
>>> quantitative_readout("O=C(c1ccc([N+](=O)[O-])cc1)N1CCN(c2ccc(N3C[C@H](Cn4ccnn4)OC3=O)cc2F)CC1")
1
>>> quantitative_readout("O=C1O[C@@H](Cn2ccnn2)CN1c1ccc(N2CCOCC2)c(F)c1")
0.5
